study-target: hCB1 (Homo sapiens, UniProt P21554)
Sequence (P21554 whole entry): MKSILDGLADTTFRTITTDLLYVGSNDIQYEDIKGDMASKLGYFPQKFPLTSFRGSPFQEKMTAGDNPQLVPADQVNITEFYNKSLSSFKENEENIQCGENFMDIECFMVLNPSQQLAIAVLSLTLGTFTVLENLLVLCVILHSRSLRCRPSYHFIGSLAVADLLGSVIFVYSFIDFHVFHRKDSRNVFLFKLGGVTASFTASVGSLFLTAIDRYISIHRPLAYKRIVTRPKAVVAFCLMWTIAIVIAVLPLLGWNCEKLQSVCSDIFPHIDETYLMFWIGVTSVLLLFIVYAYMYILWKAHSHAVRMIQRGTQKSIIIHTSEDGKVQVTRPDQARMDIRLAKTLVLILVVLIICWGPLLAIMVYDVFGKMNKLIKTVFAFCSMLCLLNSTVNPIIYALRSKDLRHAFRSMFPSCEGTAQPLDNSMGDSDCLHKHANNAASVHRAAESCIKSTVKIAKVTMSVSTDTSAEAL
procedure-details: bioSensAll ebBRET signaling profiling, hCB1
Format: cell-based
Design: host or cells: HEK293SL cells, transient PEI transfection
protocol-conditions: Gi1 biosensor; Log [Compound] (M) -9.61989
Define the label as class 1 when Gi1 hCB1 response is strictly less than -0.5 and as class 0 in all remaining cases.

| compound | class-label |
| --- | --- |
| Cc1cc(C(=O)NC(c2ccco2)c2ccco2)nn1-c1cccc(C(F)(F)F)c1 | class 0 |
| COC(=O)C(NC(=O)c1cc(C)n(-c2cccc(F)c2)n1)c1cccs1 (stereo not drawn) | class 1 |
| Cc1cc(C(=O)N2CC3(CCC3)[C@@H]2[C@@H]2CCCO2)nn1-c1cccc(C(F)(F)F)c1 | class 0 |
| COC(=O)[C@@H]1[C@@H]2CCC[C@@H]2CN1C(=O)c1cc(C)n(-c2cccc(C(F)(F)F)c2)n1 | class 1 |
| Cc1cc(C(=O)N2CC3(CCC3)[C@H]2[C@@H]2CCCO2)nn1-c1cccc(C(F)(F)F)c1 | class 0 |
| Cc1cc(C(=O)N(C)C(c2ccccc2)c2ccco2)nn1-c1cccc(C(F)(F)F)c1 (stereo not drawn) | class 1 |
| Cc1cc(C(=O)N(C)C(c2ccco2)c2ccco2)nn1-c1cccc(C(F)(F)F)c1 | class 1 |
| Cc1cc(C(=O)NC(c2ccccc2)c2ccco2)nn1-c1cccc(C(F)(F)F)c1 (stereo not drawn) | class 1 |
| COC(=O)C(NC(=O)c1cc(C)n(-c2cccc(C(F)(F)F)c2)n1)c1cccs1 (stereo not drawn) | class 1 |

---

procedure-details: Pharmacokinetics: plasma, brain, CSF
protocol-conditions: male, CD-1, mouse, plasma, intraperitoneal, 0.2 mg/kg

| molecule | measurement-units | concentration at 240 min |
| --- | --- | --- |
| COC(=O)[C@@](C)(NC(=O)c1cc(C)n(-c2cccc(C(F)(F)F)c2)n1)c1cccs1 [‘1350] | ng/mL | 0.376 |
| Cc1cc(C(=O)NC(C)(c2ccco2)c2ccco2)nn1-c1cccc(C(F)(F)F)c1 [‘4936] | ng/mL | 1.18 |

---

study-target: UniProt P20272
Sequence (P20272 whole entry): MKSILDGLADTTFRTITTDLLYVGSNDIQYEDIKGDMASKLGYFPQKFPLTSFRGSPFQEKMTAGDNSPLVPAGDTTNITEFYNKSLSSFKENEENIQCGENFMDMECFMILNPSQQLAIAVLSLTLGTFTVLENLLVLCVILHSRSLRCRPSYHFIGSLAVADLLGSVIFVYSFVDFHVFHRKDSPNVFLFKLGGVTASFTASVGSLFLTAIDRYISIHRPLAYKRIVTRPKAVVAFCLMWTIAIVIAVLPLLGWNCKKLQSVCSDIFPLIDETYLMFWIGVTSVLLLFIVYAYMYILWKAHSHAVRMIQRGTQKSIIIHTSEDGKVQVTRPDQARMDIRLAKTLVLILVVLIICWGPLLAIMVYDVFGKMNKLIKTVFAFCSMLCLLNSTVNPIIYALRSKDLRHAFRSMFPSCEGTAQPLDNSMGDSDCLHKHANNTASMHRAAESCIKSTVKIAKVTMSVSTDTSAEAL
procedure-details: Single-point radioligand displacement screen
Format: binding
protocol-conditions: Figure 1c source data, replicate 3
// values below are reported rep3_displacement

| molecule | rep3_displacement |
| --- | --- |
| CC1C(C(F)(F)F)CCN1C(=O)c1csc(N(C)c2ccccc2)n1 (stereo not drawn) [compound 27005] | 34.2 |
| Cn1nc(-c2nnc(C(C)(C)Oc3ccc(Cl)cc3)o2)c2ccccc2c1=O [‘0450] | 79 |
| O=C1CN(C(=O)c2ccc(Cl)c3cccnc23)CN1Cc1ccccc1 [compound 14861] | 15 |
| CC1OCCC12CN(C(=O)c1oc3ccccc3c1COc1ccccc1)CCO2 (stereo not drawn) [compound 70889] | 45.8 |
| Fc1ccc(C(F)(F)c2noc(-c3cnnn3-c3cccc(F)c3)n2)cc1 [compound 9217] | 44.1 |
| O=C(OCc1ncnn1-c1ccccc1)c1csc(Cc2ccccc2F)n1 [compound 67565] | 8 |
| Fc1ccc(-n2ncc3c(SCc4cc(-c5ccco5)on4)ncnc32)cc1 [compound 23397] | 12.4 |
| Cc1onc(-c2ccccc2)c1C(=O)OCc1cn2cc(Cl)ccc2n1 [compound 74872] | 48 |
| O=c1ccc(-c2nc(C(F)(F)c3ccc(F)cc3)no2)nn1-c1ccc(F)cc1 [‘2443] | 45.5 |

---

// values below are reported concentration at 1 min
procedure-details: Pharmacokinetics: plasma, brain, CSF
protocol-conditions: male, CD-1, mouse, plasma, intraperitoneal, 0.2 mg/kg

| smiles-data | concentration at 1 min (ng/mL) |
| --- | --- |
| COC(=O)[C@@](C)(NC(=O)c1cc(C)n(-c2cccc(C(F)(F)F)c2)n1)c1cccs1 | 0 |
| Cc1cc(C(=O)NC(C)(c2ccco2)c2ccco2)nn1-c1cccc(C(F)(F)F)c1 | 0 |

---

study-target: UniProtKB P21554
procedure-details: DiscoverX PathHunter β-arrestin-2 recruitment;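 further: CHO-K1 cells expressing hCB1, agonist mode, compound exposure with 1% vehicle, chemiluminescence read-out of the β-arrestin-2 recruitment signal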
Type: cell-based
protocol-conditions: read-out: DiscoverX ß-arrestin recruitment EC50

| compound | measurement-units | EC50 |
| --- | --- | --- |
| COC(=O)C(C)(NC(=O)c1cc(C)n(-c2cccc(C(F)(F)F)c2)n1)c1cccs1 (stereo not shown) | nM | 2.3 |

---

procedure-details: Pharmacokinetics: plasma, brain, CSF
protocol-conditions: male, CD-1, mouse, CSF, intraperitoneal, 0.2 mg/kg
// values below are reported concentration at 15 min

| smiles-data | concentration at 15 min [ng/mL] |
| --- | --- |
| COC(=O)[C@@](C)(NC(=O)c1cc(C)n(-c2cccc(C(F)(F)F)c2)n1)c1cccs1 | 0 |
| Cc1cc(C(=O)NC(C)(c2ccco2)c2ccco2)nn1-c1cccc(C(F)(F)F)c1 | 0 |

---

study-target: UniProt:P21554
procedure-details: bioSensAll ebBRET signaling profiling, hCB1
Format: cell-based
Design: host or cells: HEK293SL cells, transient PEI transfection
protocol-conditions: hCB1 GoB

| smiles-data | EC50 / nM |
| --- | --- |
| Cn1nc(-c2nnc(C(C)(C)Oc3ccc(C(F)(F)F)cc3)o2)c2ccccc2c1=O | 2000 |

---

study-target: hCB1 (Homo sapiens, UniProt P21554)
procedure-details: bioSensAll ebBRET signaling profiling, hCB1
Type: cell-based
Design: host or cells: HEK293SL cells, transient PEI transfection
protocol-conditions: Gi1 biosensor; Log [Compound] (M) -4.63927
Binary call on Gi1 hCB1 response: Y from 50 upward, N beneath that.

| compound | study-target | class-label |
| --- | --- | --- |
| COC(=O)[C@@H]1[C@@H]2CC[C@@H]2CN1C(=O)c1cc(C)n(-c2cccc(C(F)(F)F)c2)n1 | hCB1 (Homo sapiens, UniProt P21554) | Y |
| Cc1cc(C(=O)N(C)C(c2ccco2)c2ccco2)nn1-c1cccc(C(F)(F)F)c1 | hCB1 (Homo sapiens, UniProt P21554) | N |
| Cc1cc(C(=O)N2CC3(CCC3)[C@@H]2[C@@H]2CCCO2)nn1-c1cccc(C(F)(F)F)c1 | hCB1 (Homo sapiens, UniProt P21554) | N |
| Cc1cc(C(=O)N2CC3(CCC3)[C@@H]2[C@H]2CCCO2)nn1-c1cccc(C(F)(F)F)c1 (single isomer, unassigned) | hCB1 (Homo sapiens, UniProt P21554) | N |
| Cc1cc(C(=O)NC(c2ccccc2)c2ccco2)nn1-c1cccc(C(F)(F)F)c1 (centres unmarked) | hCB1 (Homo sapiens, UniProt P21554) | Y |
| COC(=O)[C@@H]1[C@@H]2CCC[C@@H]2CN1C(=O)c1cc(C)n(-c2cccc(Cl)c2)n1 (racemic) | hCB1 (Homo sapiens, UniProt P21554) | Y |
| COc1cccc(C(NC(=O)c2cc(C)n(-c3cccc(C(F)(F)F)c3)n2)c2ccco2)c1 (centres unmarked) | hCB1 (Homo sapiens, UniProt P21554) | N |
| Cc1cc(C(=O)N2CC3(CCC3)[C@H]2[C@@H]2CCCO2)nn1-c1cccc(C(F)(F)F)c1 | hCB1 (Homo sapiens, UniProt P21554) | Y |
| Cc1cc(C(=O)N2CC3(CCC3)[C@H]2[C@H]2CCCO2)nn1-c1cccc(C(F)(F)F)c1 | hCB1 (Homo sapiens, UniProt P21554) | Y |
| COC(=O)C(NC(=O)c1cc(C)n(-c2cccc(F)c2)n1)c1cccs1 (centres unmarked) | hCB1 (Homo sapiens, UniProt P21554) | Y |
| COC(=O)[C@@H]1[C@@H]2CCC[C@@H]2CN1C(=O)c1cc(C)n(-c2cccc(C(F)(F)F)c2)n1 | hCB1 (Homo sapiens, UniProt P21554) | Y |
| CC(=O)C(c1cccs1)N(C)C(=O)c1cc(C)n(-c2cccc(C(F)(F)F)c2)n1 (centres unmarked) | hCB1 (Homo sapiens, UniProt P21554) | Y |
| COC(=O)[C@](C)(NC(=O)c1cc(C)n(-c2cccc(C(F)(F)F)c2)n1)c1cccs1 | hCB1 (Homo sapiens, UniProt P21554) | Y |
| COC(=O)C(NC(=O)c1cc(C)n(-c2cccc(C(F)(F)F)c2)n1)c1cccs1 (centres unmarked) | hCB1 (Homo sapiens, UniProt P21554) | Y |
| Cc1cc(C(=O)N(C)C(c2ccccc2)c2ccco2)nn1-c1cccc(C(F)(F)F)c1 (centres unmarked) | hCB1 (Homo sapiens, UniProt P21554) | N |
| Cc1cc(C(=O)NC(c2ccco2)c2ccco2)nn1-c1cccc(C(F)(F)F)c1 | hCB1 (Homo sapiens, UniProt P21554) | Y |

---

// values below are reported remaining at 1 h, 1 µM
procedure-details: in vitro
protocol-conditions: mouse, plasma
endpoint: remaining at 1 h, 1 µM (%)

| compound | endpoint-result |
| --- | --- |
| CC(C)[N+](C)(CCOC(=O)C1c2ccccc2Oc2ccccc21)C(C)C [Propantheline, reference compound] | 31 |
| COC(=O)[C@@](C)(NC(=O)c1cc(C)n(-c2cccc(C(F)(F)F)c2)n1)c1cccs1 | 48 |
